Source: patent US10385022B2

Biological target: human GPBAR1 receptor (Homo sapiens (Human), UniProt Q8TDU6)
Sequence (Q8TDU6 whole entry): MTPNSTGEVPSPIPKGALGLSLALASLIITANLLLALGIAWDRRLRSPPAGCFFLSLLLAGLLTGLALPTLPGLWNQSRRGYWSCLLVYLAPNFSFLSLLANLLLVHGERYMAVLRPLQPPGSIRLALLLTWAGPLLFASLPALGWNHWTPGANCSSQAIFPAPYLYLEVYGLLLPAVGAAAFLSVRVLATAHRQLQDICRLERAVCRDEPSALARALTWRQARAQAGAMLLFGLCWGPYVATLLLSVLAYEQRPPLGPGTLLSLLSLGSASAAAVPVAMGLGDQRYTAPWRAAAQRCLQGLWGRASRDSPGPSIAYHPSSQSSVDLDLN
Assay: functional cAMP assay in CHO-dhfr(minus) cells expressing human GPBAR1 receptors
Settings: CHO-dhfr(minus) cells expressing human GPBAR1, 30 min at 30° C.
MEASURE: EC50 (nM)

Recorded results for 3 molecules are shown here.
| SMILES_STRUCTURE | EC50 [nM] |
| --- | --- |
| Cc1ccccc1-c1ccncc1N(C)C(=O)c1cc(N)cc(C(F)(F)F)c1 | 1700 |
| Cc1cc(-c2ccccc2OCC2COC2)c(N(C)C(=O)c2cc(C(F)(F)F)cc(S(C)(=O)=O)c2)cn1 | 1880 |
| COc1cc(F)ccc1-c1ccncc1N(C)C(=O)c1cc(SCCCCC(=O)O)cc(C(F)(F)F)c1 | 610 |

1. COc1cc(F)ccc1-c1ccncc1N(Cc1ncco1)C(=O)c1cc(C(F)(F)F)cc(S(C)(=O)=O)c1
2. COc1cc(F)ccc1-c1ccncc1N(C)C(=O)c1cc(Cl)cc(S(C)(=O)=O)c1
Which shows the larger EC50 value: 1 or 2 ? The response must carry the label of the picked entry.
2

1. Cc1cc(-c2ccccc2Cl)c(N(CC(F)(F)F)C(=O)c2cc(C(F)(F)F)cc(S(C)(=O)=O)c2)cn1
2. CS(=O)(=O)c1cc(C(=O)N(CC#N)c2cnccc2-c2ccccc2OC(F)(F)F)cc(C(F)(F)F)c1
Decide: 1 or 2 , by lowest recorded EC50. Give the chosen item's label as your response.
2
(2: 81 nM, 1: 831 nM)

###

Target: UniProt:Q8TDU6
Assay: functional cAMP assay in CHO-dhfr(minus) cells expressing human GPBAR1 receptors
Details: CHO-dhfr(minus) cells expressing human GPBAR1, 30 min at 30° C.
MEASURE: EC50 (nM)

Previously resolved entries follow.
| SMILES_STRUCTURE | EC50 (nM) |
| --- | --- |
| CCC(=O)CN(C(=O)c1cc(C(F)(F)F)cc(S(C)(=O)=O)c1)c1cnccc1-c1ccc(F)cc1OC | 619 |
| CN(C(=O)c1cc(C(F)(F)F)cc(S(C)(=O)=O)c1)c1cnccc1-c1ccccc1OC1COC1 | 64 |
| CN(C(=O)c1cc(CO)cc(C(F)(F)F)c1)c1cnccc1-c1ccccc1Cl | 1960 |
| COC(=O)CN(C(=O)c1cc(C(F)(F)F)nc(C(F)(F)F)c1)c1cnccc1-c1cc(F)c(F)cc1OC | 53 |
| COc1cc(F)ccc1-c1cc(C)ncc1N(C)C(=O)c1cc(SC2COC2)cc(C(F)(F)F)c1 | 41 |

A. COc1cc(F)c(F)cc1-c1ccncc1N(CC(F)(F)F)C(=O)c1cc(C(F)(F)F)nc(C(F)(F)F)c1
B. CN(C(=O)c1cc(C(F)(F)F)cc(C(F)(F)F)c1)c1cnccc1-c1ccccc1CCO
Could you determine which record has the numerically smaller EC50? Candidates: A and B Please reply using the label of the selected record.
A

###

Target: human GPBAR1 receptor (Homo sapiens (Human), UniProt Q8TDU6)
Assay: functional cAMP assay in CHO-dhfr(minus) cells expressing human GPBAR1 receptors
Settings: CHO-dhfr(minus) cells expressing human GPBAR1, 30 min at 30° C.
pEC50: −log10 of the molar value.
MEASURE: pEC50

| COMPOUND | pEC50 |
| --- | --- |
| Cc1ccccc1-c1ccncc1N(C)C(=O)c1ccc(C(F)(F)F)c(Cl)c1 [Example 97] | 6.14 |
| COc1cc(F)ccc1-c1ccnc(C)c1N(C)C(=O)c1cc(C(F)(F)F)cc(S(C)(=O)=O)c1 [Example 230] | 7.14 |
| COc1cc(F)ccc1-c1ccncc1N(C)C(=O)c1cc(C(F)(F)F)cc(S(C)(=O)=O)c1 [Example 138] | 7.38 |
| COc1cc(-c2ccncc2N(C)C(=O)c2cc(C(F)(F)F)cc(S(C)(=O)=O)c2)c(F)cc1F [Example 284] | 6.45 |

1. COc1cc(F)ccc1-c1ccncc1N(CC1CCOC1)C(=O)c1cc(C(F)(F)F)cc(S(C)(=O)=O)c1 (centres unmarked) [Example 273]
2. Cc1cc(-c2cc(F)ccc2C)c(N(C)C(=O)c2cc(C(F)(F)F)cc(S(C)(=O)=O)c2)cn1 [Example 264]
3. CN(C(=O)c1ccc(Br)c(C(F)(F)F)c1)c1cnccc1-c1ccccc1Cl [Example 80]
Could you please sort these 3 entries by pEC50 from high to low? Would you mind listing the labels in the order asked for?
3, 1, 2
